// monoamine oxidase B (MAO-B, extracted) (Homo sapiens) pIC50 records
One number for each entry, as −log10 of the molar value.

# count of solved cases: 2
Cc1ccc(Nc2nnc(-c3ccncc3)o2)c(C)c1
5.96
Fc1cc(F)cc(Cc2nnc(Nc3ccc(F)cc3F)o2)c1
5.69

We next turn to a different molecule, shown below.
Qu. Please respond with reported pIC50 (system monoamine oxidase B (MAO-B, extracted) (Homo sapiens)) for Cc1ccc(Nc2nnc(-c3cccc(F)c3)o2)c(C)c1 .
Ans. 5.72

----------
Molecular target: butyryl cholinesterase (BChE) (Homo sapiens)
Sequence (P06276 29-602, species assumed): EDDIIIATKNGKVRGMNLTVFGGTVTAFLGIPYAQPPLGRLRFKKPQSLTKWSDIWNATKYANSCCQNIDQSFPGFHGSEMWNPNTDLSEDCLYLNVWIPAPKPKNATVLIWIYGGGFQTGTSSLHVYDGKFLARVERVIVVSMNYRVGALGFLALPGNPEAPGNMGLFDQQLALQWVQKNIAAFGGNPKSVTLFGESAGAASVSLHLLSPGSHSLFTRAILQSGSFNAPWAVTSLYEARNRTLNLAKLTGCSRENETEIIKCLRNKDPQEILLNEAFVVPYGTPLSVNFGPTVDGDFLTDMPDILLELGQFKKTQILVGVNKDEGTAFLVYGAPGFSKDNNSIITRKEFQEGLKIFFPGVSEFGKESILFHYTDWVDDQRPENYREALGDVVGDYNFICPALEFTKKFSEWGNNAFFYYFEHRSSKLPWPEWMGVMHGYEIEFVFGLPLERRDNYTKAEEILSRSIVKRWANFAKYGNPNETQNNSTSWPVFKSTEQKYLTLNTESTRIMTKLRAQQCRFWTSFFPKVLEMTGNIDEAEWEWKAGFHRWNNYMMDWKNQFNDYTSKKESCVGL
Test: Butyryl cholinesterase inhibition assay
Assay type: biochemical
Details: test concentration not given
Values of BChE %age inhibition greater than or equal to 20 % ^c map to condition met; values below map to condition not met.

Consider the worked cases shown below.
FC(F)(F)c1ccc(-c2nnc(Nc3ccc(Br)cc3)o2)cc1
condition met
Cc1ccccc1Nc1nnc(-c2ccccc2)o1
condition met
Cc1ccc(F)c(-c2nnc(Nc3ccccc3F)o2)c1
condition not met

Qu. Assess whether reported BChE %age inhibition for Fc1cc(F)cc(Cc2nnc(Nc3ccccc3F)o2)c1 sits at 20 % ^c or higher.
Ans. condition met

Qu. Assess whether reported BChE %age inhibition for Fc1cc(F)cc(Cc2nnc(Nc3ccc(F)cc3F)o2)c1 sits at 20 % ^c or higher.
Ans. condition not met

Qu. Assess whether reported BChE %age inhibition for c1ccc(Nc2nnc(-c3ccncc3)o2)cc1 sits at 20 % ^c or higher.
Ans. condition met

Qu. Assess whether reported BChE %age inhibition for CC(C)c1ccc(Nc2nnc(-c3ccc(C(F)(F)F)cc3)o2)cc1 sits at 20 % ^c or higher.
Ans. condition not met

Qu. Assess whether reported BChE %age inhibition for Fc1ccccc1Nc1nnc(Cc2ccccc2C(F)(F)F)o1 sits at 20 % ^c or higher.
Ans. condition not met

----------
Task for the reader: assign each of the following molecules its reported MAO-A %age inhibition.
Molecular target: monoamine oxidase A (MAO-A, extracted) (Homo sapiens, UniProt P21397)
Sequence (P21397 whole entry): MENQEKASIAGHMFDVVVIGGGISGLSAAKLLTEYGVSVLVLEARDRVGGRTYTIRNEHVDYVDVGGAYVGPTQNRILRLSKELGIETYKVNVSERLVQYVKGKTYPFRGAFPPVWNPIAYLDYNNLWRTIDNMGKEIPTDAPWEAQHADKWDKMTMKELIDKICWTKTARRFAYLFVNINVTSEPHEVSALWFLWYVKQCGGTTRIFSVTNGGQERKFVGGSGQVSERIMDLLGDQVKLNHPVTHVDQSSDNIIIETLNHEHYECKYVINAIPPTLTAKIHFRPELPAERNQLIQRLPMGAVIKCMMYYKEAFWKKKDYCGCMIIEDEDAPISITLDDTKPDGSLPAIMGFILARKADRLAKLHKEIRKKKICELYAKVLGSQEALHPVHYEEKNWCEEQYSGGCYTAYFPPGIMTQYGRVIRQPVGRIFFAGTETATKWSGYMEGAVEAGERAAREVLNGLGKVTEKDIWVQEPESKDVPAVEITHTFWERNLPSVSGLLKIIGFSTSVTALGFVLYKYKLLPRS
Conditions: compounds not above 50% inhibition; test concentration not given
Marks after values point to notes of the source that are not given here.

# count of solved cases: 3
N#Cc1cccc(Nc2nnc(-c3ccc(C(F)(F)F)cc3)o2)c1 [Compound 4a]
33.23 ^c %
Cc1ccc(F)c(-c2nnc(Nc3ccccc3F)o2)c1 [Compound 4h]
21.87 ^c %
Fc1ccccc1Nc1nnc(-c2ccc(C(F)(F)F)cc2)o1 [Compound 4i]
38.11 ^c %

Record MAO-A %age inhibition for all entries; do not skip any.
1. Cc1ccccc1Nc1nnc(-c2ccccc2)o1 [Compound 4n]
2. Cc1c(F)cccc1-c1nnc(Nc2ccccc2)o1 [Compound 4o]
3. Fc1cc(F)cc(Cc2nnc(Nc3ccccc3F)o2)c1 [Compound 4f]
4. FC(F)(F)c1ccc(-c2nnc(Nc3ccc(Br)cc3)o2)cc1 [Compound 4l]

Ans.
1: 21.07 ^c %; 2: 29.98 ^c %; 3: 34.82 ^c %; 4: 36.81 ^c %

----------
Molecular target: UniProtKB P27338
Settings: compounds not above 50% inhibition; test concentration not given
Marks after values point to notes of the source that are not given here.
attribute_measured: MAO-B %age inhibition

# count of solved cases: 5
N#Cc1cccc(Nc2nnc(Cc3ccccc3C(F)(F)F)o2)c1 [Compound 4b]
35.73 ^c %
N#Cc1cccc(Nc2nnc(-c3ccc(C(F)(F)F)cc3)o2)c1 [Compound 4a]
37.06 ^c %
Cc1ccccc1Nc1nnc(-c2ccccc2)o1 [Compound 4n]
18.47 ^c %
Fc1ccccc1Nc1nnc(-c2ccc(C(F)(F)F)cc2)o1 [Compound 4i]
32.53 ^c %
Cc1ccc(F)c(-c2nnc(Nc3ccccc3F)o2)c1 [Compound 4h]
29.36 ^c %

Record MAO-B %age inhibition for all entries; do not skip any.
1. Fc1cc(F)cc(Cc2nnc(Nc3ccccc3F)o2)c1 [Compound 4f]
2. N#Cc1cccc(Nc2nnc(-c3ccncc3)o2)c1 [Compound 4j]
3. Cc1c(F)cccc1-c1nnc(Nc2ccccc2)o1 [Compound 4o]
4. FC(F)(F)c1ccc(-c2nnc(Nc3ccc(Br)cc3)o2)cc1 [Compound 4l]

Ans.
["39.46 ^c %", "18.57 ^c %", "22.65 ^c %", "24.86 ^c %"]
